tested on: Yap1 mRNA; assay: Antisense inhibition of human Yap1 in SNU-449 cells by modified oligonucleotides, single dose (Example 5, RTS36584); assay type: cell-based; settings: Table 41; SNU-449 cells, 10,000 cells per well, free uptake, 2,000 nM modified oligonucleotide, approximately 48 hours; RTS36584; normalized to RIBOGREEN; Yap1 mRNA relative to untreated control cells
Strand notation (5' to 3'): a small letter for the sugar, then the base; units joined by * are phosphorothioate-linked, units joined directly phosphodiester-linked; [ ] holds rarer units or linkages, { } end groups; capitals alone tell only the bases. e = 2'-O-(2-methoxyethyl) (MOE); k = constrained ethyl (cEt); [5mC] = 5-methylcytosine; d = 2'-deoxy (DNA)
Where YAP1 (% UTC) equals or exceeds 60 % UTC, the correct label is yes (1); where it does not, the label is no (0).

Worked set:
- Substance: "1198740 (AACACTGAGGTATAAC; all C 5-methyl, sugars by position and backbone not given here; position 2 notation garbled, mixed cEt/MOE/deoxy gapmer) [Compound 1198740]"
  Class name: "no (0)"
- Substance: "1198659 (antisense kT*kT*dA*dA*dG*d[5mC]*dA*d[5mC]*dT*dT*dT*dT*kA*e[5mC]*kA*eT) [Compound 1198659]"
  Class name: "no (0)"
- Substance: "1198769 (kT*eT*kA*dT*dA*dT*dG*dG*dT*dT*dT*dT*eG*eT*kG*kT; antisense) [Compound 1198769]"
  Class name: "yes (1)"
- Substance: "1198641 (kA*kT*dT*dA*dG*dA*dG*dT*dA*dT*dG*dT*kG*eG*k[5mC]*eA; antisense) [Compound 1198641]"
  Class name: "no (0)"

We next turn to a different substance, shown below.
Input: hey, is YAP1 (% UTC) for this one >= 60 % UTC? 1198667 (antisense kA*kG*dT*dG*d[5mC]*dT*dT*dT*dG*dG*dA*dA*kG*eA*kT*e[5mC]) [Compound 1198667]
Output: no (0)

* * *

tested on: Yap1 mRNA; test: Antisense inhibition of human Yap1 in SNU-449 cells by modified oligonucleotides, single dose (Example 5, RTS36584); assay type: cell-based; settings: Table 42 (separate experiment); SNU-449 cells, 10,000 cells per well, free uptake, 2,000 nM modified oligonucleotide, approximately 48 hours; RTS36584; normalized to RIBOGREEN; Yap1 mRNA relative to untreated control cells
Strand notation (5' to 3'): a small letter for the sugar, then the base; units joined by * are phosphorothioate-linked, units joined directly phosphodiester-linked; [ ] holds rarer units or linkages, { } end groups; capitals alone tell only the bases. e = 2'-O-(2-methoxyethyl) (MOE); k = constrained ethyl (cEt); [5mC] = 5-methylcytosine; d = 2'-deoxy (DNA)
Overview of recorded YAP1 (% UTC) for various substances
All answers are understood in % UTC, so give the number only.

Below are worked cases with known answers.
- Substance: "1198230 (kG*kG*dA*dA*dG*dA*dT*d[5mC]*dT*dG*dA*eA*eA*e[5mC]*kT*k[5mC]) [Compound 1198230]"
  Data value: 81
- Substance: "1198229 (kT*kT*dA*dA*dG*d[5mC]*dA*d[5mC]*dT*dT*dT*eT*eA*e[5mC]*kA*kT) [Compound 1198229]"
  Data value: 80
- Substance: "1198706 (kA*kG*dT*dA*dA*dG*dG*dT*dT*dT*d[5mC]*d[5mC]*k[5mC]*eA*kG*eA; antisense) [Compound 1198706]"
  Data value: 39

Now for a further substance.
Input: Recall and state the measured YAP1 (% UTC) for 1198686 (antisense kG*kA*d[5mC]*dA*dA*d[5mC]*dT*d[5mC]*dT*dT*dA*dT*kA*eT*kG*eG) [Compound 1198686] .
Output: 78

* * *

tested on: Yap1 mRNA; assay: Dose-dependent inhibition of human Yap1 in SNU-449 cells (Example 9, RTS36584); assay type: cell-based; conditions: 2000.00 nM, free uptake, approximately 48 hours
Strand notation (5' to 3'): a small letter for the sugar, then the base; units joined by * are phosphorothioate-linked, units joined directly phosphodiester-linked; [ ] holds rarer units or linkages, { } end groups; capitals alone tell only the bases. e = 2'-O-(2-methoxyethyl) (MOE); k = constrained ethyl (cEt); [5mC] = 5-methylcytosine; d = 2'-deoxy (DNA); m = 2'-O-methyl
Kindly note that classification relies on % UTC (Yap1 mRNA) with these boundaries: bottom: < 5 % UTC; middle: ≥ 5 % UTC and < 9 % UTC; top: ≥ 9 % UTC

- Substance: "1197229 (kG*kG*kA*dA*mA*dT*dT*dG*dT*d[5mC]*dT*d[5mC]*dA*kT*kG*k[5mC]; antisense) [compound 1197229]"
  Class name: "middle"
- Substance: "1197177 (kA*kT*kT*dG*dT*d[5mC]*dT*d[5mC]*dA*dT*dG*d[5mC]*d[5mC]*kT*kT*kA; antisense) [compound 1197177]"
  Class name: "bottom"
- Substance: "1197217 (kT*kT*kA*dA*dA*dG*dT*dG*dT*dA*dT*dG*dT*k[5mC]*kA*kG) [compound 1197217]"
  Class name: "bottom"
- Substance: "1198347 (kG*kT*kA*dA*dT*dA*dT*dT*dG*d[5mC]*dA*dA*kT*e[5mC]*kT*eG) [compound 1198347]"
  Class name: "middle"

Input: Field: class (% UTC (Yap1 mRNA)) — entry: 1198814 (kA*kG*dA*dG*dT*dA*dT*dG*dT*dG*dG*k[5mC]*eA*kA*eT*kA) [compound 1198814]
Output: bottom

Input: Consider 1198578 (GCTTTGGAAGATCTGA; modified gapmer, chemistry not fully specified) [compound 1198578] . To which % UTC (Yap1 mRNA) class does it belong?
Output: top

Input: Could you place 1198500 (kA*kT*dT*dT*dA*dG*dG*dA*dT*dG*d[5mC]*eA*kT*eG*kG*eT; antisense) [compound 1198500] in its proper category? Many thanks.
Output: top

* * *

System: SCC25 cells
Assay: Cell proliferation assay in SCC25 cells, CellTiter-Glo (Example 25)
Type: cell-based, human
Details: 5 μM, free uptake, 144 hours
Procedure: Modified oligonucleotides described in the studies above were tested at various doses in squamous cell carcinoma cell SCC25. […] Cultured SCC25 cells at a density of 1,000 cells/well were treated using free uptake with modified oligonucleotides diluted to concentrations described in the tables below. After approximately 144 hours, cell proliferation was measured using the luminescent cell viability CellTiter-Glo® 2.0 Assay (Promega). […]
Quick reference: cell proliferation (luminescence) % UTC of the listed items.
Your answer should be a plain number; it is taken to be in % UTC.

Here is how some substances turned out for cell proliferation (luminescence) % UTC.
- Substance: "1198440 (AAGTGTATGTCAGAAG; cEt, 2'-MOE, 5-methylcytosine, phosphorothioate modifications, further chemistry not given here) [compound 1198440]"
  Unit string: "% UTC"
  cell proliferation (luminescence) % UTC: 16
- Substance: "1198439 (AGTGTATGTCAGAAGA; sugar, 5-methylcytosine, phosphorothioate modifications, further chemistry not given here) [compound 1198439]"
  Unit string: "% UTC"
  cell proliferation (luminescence) % UTC: 16
- Substance: "1198831 (CACTTTTACATTAGGA; chemically modified gapmer, further chemistry not given here) [compound 1198831]"
  Unit string: "% UTC"
  cell proliferation (luminescence) % UTC: 21

Input: Report measured cell proliferation (luminescence) % UTC; entry is 1076453 (GTAATATTGCAATCTG; 3-10-3 cEt gapmer, further chemistry not given here) [compound 1076453]
Output: 15

Input: Please look at this substance and report its cell proliferation (luminescence) % UTC: 1198872 (TGTATGTCAGAAGAGT; chemically modified gapmer, further chemistry not given here) [compound 1198872]
Output: 18

* * *

assay: Cynomolgus monkey tolerability, hematology (Example 34); format: in vivo, cynomolgus monkeys; conditions: cynomolgus monkey, in vivo, sc, 35 mg/kg
Below, each of the substances is paired with its reported HGB value.
Don't forget the unit after the value.

- Substance: "1198728 (TATTAGAGTATGTGGC; modified gapmer, further chemistry not given here) [compound 1198728]"
  HGB: "14 g/dL"
- Substance: "1198831 (CACTTTTACATTAGGA; chemically modified gapmer, further chemistry not given here) [compound 1198831]"
  HGB: "13 g/dL"
- Substance: "1198605 (GTAATATTGCAATCTG; modified gapmer, further chemistry not given here) [compound 1198605]"
  HGB: "13 g/dL"

Shift focus to the following entry.
Input: For the substance 1198623 (CTAAGTAAGGTTTCCC; modified gapmer, further chemistry not given here) [compound 1198623] , give its measured HGB value.
Output: 14 g/dL
